# system_under_test: Glucose transporter (Leishmania mexicana)
# experiment: ST_JUDE_LEISH: Cytotoxicity at 2uM final concentration against transgenic Leishmania Mexicana promastigotes LmGT2 that are glucose transport deficient and complemented with the L. Mexicana glucose transporter 2. Activity is measured by DNA content using SYBR green in vitro
# Assay type: functional
endpoint_label: inhibition (%)
Provide the reading as a plain figure in %.

Request: Item "O=C(/C=C/c1cc([N+](=O)[O-])ccc1Cl)N1CCC(CCN2CCC(c3c[nH]c4ccccc34)CC2)CC1" with Glucose transporter (Leishmania mexicana) - inhibition?
Response: 0.76

Request: Reported inhibition for Glucose transporter (Leishmania mexicana), given "Cc1cc(OCCN2CCCCC2)ccc1NC(=O)c1cccc2c(=O)n(Cc3ccc(Cl)cc3)cnc12" ?
Response: 105

Request: What reported inhibition corresponds to "Cc1cc(N[C@@H](CC(C)C)C(=O)NCCc2ccccc2)nc(NCC2CCCCC2)n1" on Glucose transporter (Leishmania mexicana)?
Response: 3.37

Request: Lab note: need inhibition with Glucose transporter (Leishmania mexicana) for entry "Cc1cc(NCCc2ccccc2)nc(NC(=N)Nc2ccccc2Cl)n1" , please look it up.
Response: 7.34

Request: Notebook: pull reported inhibition for Glucose transporter (Leishmania mexicana), entry "COc1ccccc1-n1c(-c2ccc3ccccc3c2)csc1=NC(=O)c1ccccc1"
Response: -4.04

Request: So what inhibition did "COc1ccc(-c2csc3ncnc(Cl)c23)cc1OC" get with Glucose transporter (Leishmania mexicana)?
Response: -0.23

Request: Param readout = inhibition; param system = Glucose transporter (Leishmania mexicana); param query = "O=C(Nc1ccc(-c2nc3ccccc3[nH]2)cc1)c1cccc([N+](=O)[O-])c1" ; response: value
Response: -1.09

Request: Write down the reported inhibition of "CCc1ccc(NC(=O)N(CCCn2ccnc2)Cc2csc(-c3ccc(CNCc4ccccc4)cc3)n2)cc1" , test system: Glucose transporter (Leishmania mexicana).
Response: 2.49

Request: Request - read-out inhibition | tested on Glucose transporter (Leishmania mexicana) | compound "O=C(Nc1ccc(-c2ccccc2)cc1)Nc1cccc(OCCN2CCCC2)c1"
Response: 4

Request: Which measured inhibition belongs to "CN1CCCN(Cc2cccc(-c3ccc(NC(=O)c4cccc(C#N)c4)cc3)c2)CC1" , tested on Glucose transporter (Leishmania mexicana)?
Response: 9.31

Request: Form field: inhibition recorded for "Cn1c(Cc2ccccc2)nnc1Sc1ccc(C#N)c([N+](=O)[O-])c1" with Glucose transporter (Leishmania mexicana) (enter value)
Response: -3.07

Request: Notebook entry, Glucose transporter (Leishmania mexicana) assay: inhibition of "Cc1cnc(Nc2ccccc2)nc1N[C@@H](CCCN)C(=O)Nc1ccccc1" = ?
Response: -0.3

Request: Query for Glucose transporter (Leishmania mexicana): what inhibition does the record show for "N=C(NCCCCC1CCCCC1)c1cccc(C(=N)NCCCCC2CCCCC2)n1" ?
Response: 0.14

Request: Reported inhibition for Glucose transporter (Leishmania mexicana), given "Cc1cc(NCCCN2CCCC2=O)n2c(nc3ccccc32)c1C#N" ?
Response: 2.22

Request: Lookup: inhibition / Glucose transporter (Leishmania mexicana) / "COc1ccc(CN(C)CCCCc2ccc(NC(=O)COc3cccc4sc5ccccc5c(=O)c34)cc2)cc1OC"
Response: 0.59

Request: Could you share what inhibition was measured for "O=C(Nc1c(F)cccc1F)c1cccc(-c2nn3ccccc3c2-c2ccnc(Nc3cccc(-c4cnco4)c3)n2)c1" , tested on Glucose transporter (Leishmania mexicana)?
Response: 1.5

Request: I'm curious: which inhibition was measured for CCNc1cc(C(=O)N[C@@H](Cc2ccccc2Cl)[C@H](O)CNC(C)CCCC(C)C)cc(N2CCCCS2(=O)=O)c1 (stereo partly drawn) tested on Glucose transporter (Leishmania mexicana)?
Response: -2.24

Request: Lookup: inhibition / Glucose transporter (Leishmania mexicana) / "OC1(Cc2ccccc2)CCN(Cc2cccc(-c3c[nH]c4nc(NC5CCCC5)ncc34)c2)CC1"
Response: 6.99

Request: Observed inhibition on Glucose transporter (Leishmania mexicana) for Cc1ccc(C(=O)Nc2cccc([N+](=O)[O-])c2)cc1S(=O)(=O)N1CC(C)CC(C)C1 (stereo not drawn) , please.
Response: 0.08

Request: What value of inhibition on Glucose transporter (Leishmania mexicana) does "Cc1cc(N[C@@H](Cc2ccccc2)C(=O)NCc2cccs2)nc(NCCc2ccccn2)n1" have?
Response: 1.45

Request: Short answer please: inhibition, Glucose transporter (Leishmania mexicana), entry "COc1cccc(-c2[nH]c3ccccc3c2CN2CCC(c3c(C)cccc3C)CC2)c1"
Response: -1.74

Request: Kindly state the measured inhibition obtained for "O=C(/C=C/c1cccc(Cl)c1)NCCCCCN1CCC(c2c[nH]c3ccccc23)CC1" with Glucose transporter (Leishmania mexicana).
Response: 0.06

Request: Give the reported inhibition for "COCCOc1ccc(Nc2nccc(-c3c(-c4cccc(NC(=O)c5c(F)cccc5F)c4)nn4ccccc34)n2)cc1Cl" (system: Glucose transporter (Leishmania mexicana)).
Response: 2.52

Request: What measured inhibition is associated with "CCS(=O)(=O)c1ccc(-c2cnc3[nH]cc(-c4ccc(N)cc4)c3c2)cc1" on Glucose transporter (Leishmania mexicana)?
Response: 16.2

Request: Report inhibition for "CCN(CC)CCCN(C(=O)c1cc2c(C)nn(-c3ccccc3)c2s1)c1nc(-c2ccc(OC)cc2)cs1" tested on Glucose transporter (Leishmania mexicana).
Response: 8.72

Request: // fetch Glucose transporter (Leishmania mexicana) inhibition for "CCCC1(NC[C@@H](O)[C@H](Cc2ccccc2)NC(=O)c2cc(NCC)cc(N3CCCCS3(=O)=O)c2)CC1"
Response: -0.73

Request: Give inhibition (Glucose transporter (Leishmania mexicana)) of the following compound: "Cc1cccc(CN2CCC(Oc3ccc(NC(=O)c4cccs4)cc3Cl)CC2)n1"
Response: 2.69

Request: Checklist item: inhibition tested on Glucose transporter (Leishmania mexicana), entry "CCCCCCCN1CC[C@@H](CCCc2ccnc3ccc(OCCN4CCNCC4)cc23)[C@@H](CC)C1" , value?
Response: 0.64

Request: Form field - read-out: inhibition; system: Glucose transporter (Leishmania mexicana); submitted item: "Cc1cc(=O)[nH]c(-n2nc(C)cc2NC(=O)CC(c2ccccc2)c2ccccc2)n1"
Response: -1.63

Request: // fetch Glucose transporter (Leishmania mexicana) inhibition for "Cc1cccc2nc(-c3cccc(-c4ccc(CNCc5ccc(S(C)(=O)=O)cc5)cc4)c3)[nH]c12"
Response: 7.97

Request: # returns recorded inhibition (system: Glucose transporter (Leishmania mexicana)) for "COc1ccc2nccc([C@H](O)CN3CCC(NCc4ccc5c(c4C)OCCO5)CC3)c2n1"
Response: 69.1

Request: Field: inhibition (Glucose transporter (Leishmania mexicana)). Entry: CCC(ON1C(N)=NC(N)=NC1(C)C)c1ccc(Cl)cc1 (stereo not drawn)
Response: 10.4

Request: Query the reported inhibition for Glucose transporter (Leishmania mexicana); item: COc1cccc(C2C(C(=O)Nc3ccccc3)=C(C)N=c3sc(=Cc4ccc(O)cc4)c(=O)n32)c1 (stereo not drawn)
Response: 16.8

Request: API: value(readout= inhibition, system= Glucose transporter (Leishmania mexicana), query= Cc1noc(-c2ccc3c(c2)CCN(CCC2CCC(NC(=O)/C=C/c4cccc(Cl)c4)CC2)CC3)n1 (stereo not drawn) )
Response: 0.68

Request: Form entry - test system: Glucose transporter (Leishmania mexicana); read-out: inhibition; compound: "COC(=O)C(=O)c1c(-c2ccccc2)c(-c2ccc(OC)c(OC)c2)c2c3cc(OC)c(OC)cc3ccn12"
Response: 8.49

Request: API: value(readout= inhibition, system= Glucose transporter (Leishmania mexicana), query= "Cc1ccccc1Nc1nc(NCc2ccccc2)nc2ccccc12" )
Response: 5.77

Request: Record lookup: for Glucose transporter (Leishmania mexicana), what inhibition belongs to "Cc1ccc(N2C(N)=NC(N)=NC2(C)C)cc1Cl" ?
Response: 8.05

Request: Item: Cc1cccc2nc(-c3ccc(-c4cccc(C(=O)N5CCCCC5C(C)O)c4)s3)[nH]c12 (stereo not drawn) Test system: Glucose transporter (Leishmania mexicana) Read-out: inhibition Value: ?
Response: 3.46
